Data provenance: patent US12239632B2

Structures can show the parent of a compound that is named as a salt.
As a worked illustration, we turn to pIC50 data collected for SERT (Homo sapiens).
Here pIC50 is given on a logarithmic scale as minus log10 of the concentration in mol/L.

1. C=CCN(CCc1c[nH]c2ccc(OC)cc12)C(C)C [ASR-3001, hydrochloride] : 5.16

q: So what's the measured pIC50 for this one? C=CCN(CCc1c[nH]c2ccccc12)C(C)C [ASR-3003, hydrochloride]
a: 5.63

====

- TARGET_OR_TEST_SYSTEM: HTR2B (Homo sapiens)
- Sequence (P41595 whole entry): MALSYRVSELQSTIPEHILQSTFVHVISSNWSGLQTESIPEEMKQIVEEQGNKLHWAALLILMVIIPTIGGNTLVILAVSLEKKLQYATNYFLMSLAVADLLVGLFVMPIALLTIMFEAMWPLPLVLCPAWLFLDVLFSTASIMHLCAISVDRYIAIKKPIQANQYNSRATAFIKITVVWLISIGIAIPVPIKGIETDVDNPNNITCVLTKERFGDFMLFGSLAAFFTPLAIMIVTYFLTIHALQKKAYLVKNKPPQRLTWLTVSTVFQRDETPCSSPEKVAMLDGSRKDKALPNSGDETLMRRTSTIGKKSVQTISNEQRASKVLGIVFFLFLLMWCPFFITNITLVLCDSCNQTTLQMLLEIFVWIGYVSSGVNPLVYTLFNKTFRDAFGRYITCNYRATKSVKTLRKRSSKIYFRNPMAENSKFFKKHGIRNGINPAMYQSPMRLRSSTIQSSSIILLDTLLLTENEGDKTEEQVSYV
- EXPERIMENT_DESCRIPTION: Calcium mobilization assay, HTR2B agonist mode
Counter-ions that a name gives are not always drawn.
Recorded EC50 by entry

Sample answers from the record:
1. C=CCN(CCc1c[nH]c2ccc(OC)cc12)C(C)C [ASR-3001, hydrochloride] : 87.4 nM
2. C=CCN(CCc1c(C)[nH]c2ccccc12)C(C)C [ASR-3002, hydrochloride] : 1280 nM

Now, please, on to the next molecule.
q: So what's the measured EC50 for this one? C=CCN(CCc1c[nH]c2ccccc12)C(C)C [ASR-3003, hydrochloride]
a: 2540 nM

====

- TARGET_OR_TEST_SYSTEM: HTR1B (Homo sapiens, UniProt P28222)
- Sequence (P28222 whole entry): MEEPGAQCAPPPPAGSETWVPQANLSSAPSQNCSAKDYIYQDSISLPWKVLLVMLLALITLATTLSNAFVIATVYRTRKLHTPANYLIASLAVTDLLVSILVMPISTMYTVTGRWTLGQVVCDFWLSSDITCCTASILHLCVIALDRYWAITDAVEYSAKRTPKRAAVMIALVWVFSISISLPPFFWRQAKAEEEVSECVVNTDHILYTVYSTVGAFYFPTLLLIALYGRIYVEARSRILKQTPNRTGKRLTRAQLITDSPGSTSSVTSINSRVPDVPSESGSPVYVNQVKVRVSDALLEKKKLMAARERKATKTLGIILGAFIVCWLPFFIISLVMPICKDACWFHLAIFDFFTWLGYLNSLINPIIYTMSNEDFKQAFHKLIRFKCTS
- EXPERIMENT_DESCRIPTION: In vitro functional activity, HTR1B agonist mode
Counter-ions that a name gives are not always drawn.
MEASUREMENT_KIND: pEC50
Here pEC50 is given on a logarithmic scale as minus log10 of the concentration in mol/L.

Sample answers from the record:
1) C=CCN(CCc1c[nH]c2ccc(OC)cc12)C(C)C [ASR-3001, hydrochloride] : 7.33
2) C=CCN(CCc1c[nH]c2ccccc12)C(C)C [ASR-3003, hydrochloride] : 6.09

Now, please, on to the next molecule.
q: Any idea what pEC50 came out for C=CCN(CCc1c(C)[nH]c2ccccc12)C(C)C [ASR-3002, hydrochloride] on HTR1B (Homo sapiens, UniProt P28222)?
a: 5.31

====

- TARGET_OR_TEST_SYSTEM: MAOA (Homo sapiens, UniProt P21397)
- Sequence (P21397 1-527): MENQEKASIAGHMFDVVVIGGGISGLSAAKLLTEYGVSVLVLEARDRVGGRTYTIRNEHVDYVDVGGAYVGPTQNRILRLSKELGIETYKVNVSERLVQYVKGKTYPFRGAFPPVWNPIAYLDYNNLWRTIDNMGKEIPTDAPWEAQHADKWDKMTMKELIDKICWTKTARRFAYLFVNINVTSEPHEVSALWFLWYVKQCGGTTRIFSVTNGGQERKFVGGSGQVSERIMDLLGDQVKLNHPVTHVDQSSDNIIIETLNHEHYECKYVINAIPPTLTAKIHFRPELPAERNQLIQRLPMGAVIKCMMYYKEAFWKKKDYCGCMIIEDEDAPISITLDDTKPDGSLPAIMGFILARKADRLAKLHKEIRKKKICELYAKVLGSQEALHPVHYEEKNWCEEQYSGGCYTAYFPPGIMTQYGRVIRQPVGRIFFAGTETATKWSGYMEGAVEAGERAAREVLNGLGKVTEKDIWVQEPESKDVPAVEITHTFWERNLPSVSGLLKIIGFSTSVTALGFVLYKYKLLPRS
pIC50: −log10 of the molar value. Where a name gives a salt, the structure may show the parent alone.
MEASUREMENT_KIND: pIC50

Sample answers from the record:
1) C=CCN(CCc1c(C)[nH]c2ccccc12)C(C)C [ASR-3002, hydrochloride] : < 5.00
2) C=CCN(CCc1c[nH]c2ccccc12)C(C)C [ASR-3003, hydrochloride] : < 5.00

Now, please, on to the next compound.
q: So what's the measured pIC50 for this one? C=CCN(CCc1c[nH]c2ccc(OC)cc12)C(C)C [ASR-3001, hydrochloride]
a: < 5.00
